All figures here come from the MegaScale stability set (Tsuboyama et al. 2023).

B1: HHH_rd2_0155 (parent)
chain: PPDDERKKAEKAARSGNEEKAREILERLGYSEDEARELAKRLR

Variants of: B1
Assay: folding stability dG (cDNA display proteolysis); higher = more stable
Details: PBS, room temperature
Answer each item with its documented folding stability dG.
Numbers only, in kcal/mol.

Observe how each entry below is paired with its result.
I'd like to know its folding stability dG. The variant in question is E32S 2.08

I'd like to know its folding stability dG. The variant in question is D3R 1.75

I'd like to know its folding stability dG. The variant in question is D4T 2.17

I'd like to know its folding stability dG. The variant in question is K20F 1.92

I'd like to know its folding stability dG. The variant in question is E18Q 1.5

I'd like to know its folding stability dG. The variant in question is S15V 1.55

I'd like to know its folding stability dG. The variant in question is K8D 1.86

I'd like to know its folding stability dG. The variant in question is E34P 0.438

I'd like to know its folding stability dG. The variant in question is N17H 1.77

I'd like to know its folding stability dG. The variant in question is E26L 2.56

Now consider a different variant.
I'd like to know its folding stability dG. The variant in question is A35K 0.591
